These data points were gathered from patent US6274715A.

Quick list: MIC per entry.
# System: STREPTOCOCCUS PYOGENES EES61
# protocol-details: In vitro antibacterial activity, MIC, BHI agar dilution
# Assay type: cell-based
# measurement-conditions: S. pyogenes EES61, unit assumed
property-label: MIC (µg/mL)

compound	display-unit	relation-operator	experimental-value
CC[C@H]1OC(=O)[C@H](C)C(=O)[C@H](C)[C@@H](O[C@@H]2O[C@H](C)C[C@H](N(C)C)[C@H]2O)[C@](C)(OC)C[C@@H](C)C2=NC[C@H](C)N3C(=O)O[C@@]1(C)[C@H]3[C@H]2C	µg/mL	=	0.1
CC[C@H]1OC(=O)[C@H](C)C(=O)[C@H](C)[C@@H](O[C@@H]2O[C@H](C)C[C@H](N(C)C)[C@H]2O)[C@](C)(OC)C[C@@H](C)C2=NCC(CN(C)Cc3ccccc3)N3C(=O)O[C@@]1(C)[C@H]3[C@H]2C (stereo partly shown)	µg/mL	=	0.02
CC[C@H]1OC(=O)[C@H](C)C(=O)[C@H](C)[C@@H](O[C@@H]2O[C@H](C)C[C@H](N(C)C)[C@H]2O)[C@](C)(OC)C[C@@H](C)C2=NCC(COC(=O)c3ccc4ccccc4n3)N3C(=O)O[C@@]1(C)[C@H]3[C@H]2C (stereo partly shown)	µg/mL	=	0.01
CC[C@H]1OC(=O)[C@H](C)C(=O)[C@H](C)[C@@H](O[C@@H]2O[C@H](C)C[C@H](N(C)C)[C@H]2O)[C@](C)(OC)C[C@@H](C)C2=N[C@H](COCc3ccncc3)CN3C(=O)O[C@@]1(C)[C@H]3[C@H]2C	µg/mL	<	0.005

* * *

# Tested on: PSEUDOMONAS CEPACIA 296I
# protocol-details: In vitro antibacterial activity, MIC, BHI agar dilution
# Type: cell-based
# measurement-conditions: P. cepacia 296I, unit assumed

compound	MIC
CC[C@H]1OC(=O)[C@H](C)C(=O)[C@H](C)[C@@H](O[C@@H]2O[C@H](C)C[C@H](N(C)C)[C@H]2O)[C@](C)(OC)C[C@@H](C)C2=N[C@H](COCc3ccc(OC)cc3)CN3C(=O)O[C@@]1(C)[C@H]3[C@H]2C	> 100 µg/mL
CCC1OC(=O)C(C)C(=O)C(C)C(OC2OC(C)CC(N(C)C)C2O)C(C)(OC)CC(C)C2=NC(CN)CN3C(=O)OC1(C)C3C2C (centres unmarked)	> 100 µg/mL
CC[C@H]1OC(=O)[C@H](C)C(=O)[C@H](C)[C@@H](O[C@@H]2O[C@H](C)C[C@H](N(C)C)[C@H]2O)[C@](C)(OC)C[C@@H](C)C2=N[C@H](COCc3ccc(C(=O)OC)cc3)CN3C(=O)O[C@@]1(C)[C@H]3[C@H]2C	> 100 µg/mL
CC[C@H]1OC(=O)[C@H](C)C(=O)[C@H](C)[C@@H](O[C@@H]2O[C@H](C)C[C@H](N(C)C)[C@H]2O)[C@](C)(OC)C[C@@H](C)C2=N[C@@H]3CN(Cc4ccncc4)C[C@@H]3N3C(=O)O[C@@]1(C)[C@H]3[C@H]2C	> 100 µg/mL
CC[C@H]1OC(=O)[C@H](C)C(=O)[C@H](C)[C@@H](O[C@@H]2O[C@H](C)C[C@H](N(C)C)[C@H]2O)[C@](C)(OC)C[C@@H](C)C2=N[C@@H](COCc3ccccc3)CN3C(=O)O[C@@]1(C)[C@H]3[C@H]2C	25 µg/mL
CC[C@H]1OC(=O)[C@H](C)C(=O)[C@H](C)[C@@H](O[C@@H]2O[C@H](C)C[C@H](N(C)C)[C@H]2O)[C@](C)(OC)C[C@@H](C)C2=NC[C@H](COCc3ccc(F)cc3)N3C(=O)O[C@@]1(C)[C@H]3[C@H]2C	25 µg/mL
CC[C@H]1OC(=O)[C@H](C)C(=O)[C@H](C)[C@@H](O[C@@H]2O[C@H](C)C[C@H](N(C)C)[C@H]2O)[C@](C)(OC)C[C@@H](C)C2=N[C@@H]3CN(Cc4ccccc4)C[C@@H]3N3C(=O)O[C@@]1(C)[C@H]3[C@H]2C	> 100 µg/mL
CC[C@H]1OC(=O)[C@H](C)C(=O)[C@H](C)[C@@H](O[C@@H]2O[C@H](C)C[C@H](N(C)C)[C@H]2O)[C@](C)(OC)C[C@@H](C)C2=NC3CN(Cc4ccccc4)CC3N3C(=O)O[C@@]1(C)[C@H]3[C@H]2C (some centres unmarked)	50 µg/mL
